System: MOLT-4 leukemia
Assay: NCI-60 one-dose screen, 48 h
Conditions: 10 µM unless noted
Compounds without any hit were thinned out: in the full panel of roughly 83,000, 20% have a hit. Active and inactive are the calls of the source. The calls were made as follows: active = growth percent below 10; inactive = the rest.
A correct response names exactly one class from yes (1) = active, no (0) = inactive

Solved entries:
O=C1c2ccccc2C(=O)c2c1oc1oc3c(c(=O)c21)c(=O)n(-c1ccccc1)c1ccccc31 :: no (0)
CNC(=O)c1cc(Oc2ccc3c(c2)sc2nc(-c4ccc(Cl)cc4)cn23)ccn1 :: no (0)
COc1cccc(C2CC(=O)Nc3c2c(C)nn3-c2nc3ccccc3[nH]2)c1OC (stereo unspecified) :: yes (1)
O=C(O)C(=Cc1c2ccccc2cc2ccccc12)C(=O)O :: no (0)
O=C1Nc2cc(Cl)ccc2Oc2cc(Oc3ccccc3)ccc21 :: no (0)

Dear colleague, could you share the recorded outcome for Cc1oc2ncnc(Nc3ccccc3)c2c1C(=O)NCCO when you have a moment?
yes (1)

What call does the record list for N=C(N)c1ccc(-c2ccc(-c3ccc(Cl)cc3)o2)nc1 ?
no (0)

Hello, I am checking results. What call was entered for CC(Br)C(Br)c1cc2c(cc1Br)OCO2 (stereo unspecified) ?
no (0)

Would you mind telling me which call this test gave OCc1c(-c2ccccc2)nc2sccn12 ?
no (0)

Tell me the recorded outcome of this test for CCOC(=O)CC(C#N)(CC(=O)OCC)C(=O)OCC .
no (0)

====

System: SF-295 CNS
Assay: NCI-60 one-dose screen, 48 h
Conditions: 10 µM unless noted
About 83,000 compounds went through this panel and 20% of them were active in at least one assay; those are over-represented in the sample as a whole. Active and inactive are the calls of the source. Rule for the calls: active = growth percent below 10; inactive = the rest.
Your response should consist of one outcome taken from active, inactive

Solved entries:
Nc1ccccc1C#C/C=C\C#Cc1cccc(O)c1 :: inactive
O=C(/C=C/CN1CCOCC1)Nc1cc2c(Nc3cccc(Cl)c3F)ncnc2cc1OCCOC(F)F :: inactive
C=C1C(=O)O[C@H]2[C@H]1CC/C(COC(=O)NCCc1ccc(OC)cc1)=C\CC[C@@]1(C)O[C@@H]21 :: inactive
COc1ccc(-c2cn[nH]c2-c2cc(OC)c3c(c2)OCCO3)cc1 :: inactive
CCn1c(=O)c2c(=O)c3c4c(oc3oc2c2ccccc21)C(=O)c1ccccc1C4=O :: inactive
CCOP(=O)(CCN1CCN(CCCCCOc2cc3c(cc2OC)C(=O)N2CCC[C@H]2C=N3)CC1)OCC :: inactive
CCO/C=N/NC(=O)c1ccncc1 :: inactive
O=C(CC(O)c1ccncc1)c1ccccc1 (stereo unspecified) :: inactive

Assay outcome for COc1ccc(-c2nc3sccn3c2-c2ccnc(NCCCNS(=O)(=O)c3ccc4ccccc4c3)n2)cc1 : what was it?
inactive

Record lookup: outcome of this test for O=S(=O)(NCCCNc1cc(-c2cn(-c3ccccc3)nc2-c2cccc(O)c2)ccn1)c1ccc(Br)cc1 ?
active

Please indicate how the test categorized COc1ccc(-c2nnc(COc3ccc(NS(=O)(=O)c4ccc(OC)cc4)cc3F)o2)cc1 .
inactive

Dear all, I need the recorded test outcome for Cc1cc2c(C(C)C)c(O)c(O)c(C=NCCCCC(=O)O)c2c(O)c1-c1c(C)cc2c(C(C)C)c(O)c(O)c(C=NCCCCC(=O)O)c2c1O , thank you.
inactive

Status in this test for Cc1ccnc2nc(C(=O)OCC(=O)Nc3ccc(-c4ccccc4)cc3)nn12 ?
inactive

Please let me know the test result on file for O=C(C[N+](=O)[O-])c1ccc(Cl)cc1 .
inactive

====

Test system: SF-268 CNS
Assay: NCI-60 one-dose screen, 48 h (100 = growth as untreated, 0 = no growth, -100 = all killed)
Conditions: 10 µM unless noted
Method: Cells are grown in 96 well plates and exposed to the test compound for 48 hours. Compounds are tested at a single concentration, which is 10^-5 M for most compounds. The reported endpoint is percent growth (GI% or GIPRCNT), where numbers from 0 - 100% represent growth inhibition, and numbers from -100% - 0 represent cell death. For example, a value of 40 represents 60% growth inhibition. A value of 0 means no net growth occurred over the course of the experiment. […]
The panel holds about 83,000 compounds, 20% with a hit somewhere; the sample as a whole holds those more often.
observed_property: growth (%)
Answers are plain numbers, in %.

Sample records with growth:
CC(C)(C)c1ccc(S(=O)(=O)Oc2ccc3c4c(c(=O)oc3c2)CCCCC4)cc1 :: 61.1
COc1ccc(OC)c(C(=O)c2oc3ccc(Br)cc3c2N)c1 :: 47.3
CCC1CCc2nc3sc(C(=O)Nc4cccc(C)c4)c(N)c3cc2C1 (stereo not given) :: 77.6
COc1ccc(Cl)cc1NC(N)=S :: 99.5
CC(C)CCC[C@@H](C)[C@H]1CC[C@H]2[C@@H]3CC[C@H]4C/C(=N/O)CC[C@]4(C)[C@H]3CC[C@]12C :: 110

Give measured growth for every item shown.
1. Cc1nc2scc(-c3ccccc3)n2c(=O)c1CCO
2. CC(=O)Nc1nc(C(=O)N2N=C(C)/C(=C/c3ccc(Cl)cc3)C2=O)cs1
3. CC(=O)OC[Si](C)(C)c1ccccc1

1: 97.5; 2: 96.2; 3: 103

State recorded growth for all listed molecules.
1. CSc1nc(-c2cc3ccccc3o2)cc(-c2ccc(Cl)cc2)c1C#N
2. O=C1c2ccccc2C(=O)c2c1oc1oc3c(c(=O)c21)c(=O)n(-c1ccccc1)c1ccccc31

1: 51.7; 2: 34.3

====

Test system: SW-620 colon
Test: NCI-60 one-dose screen, 48 h (100 = growth as untreated, 0 = no growth, -100 = all killed)
Details: 10 µM unless noted
This is part of a sample that, as a whole, favours compounds with a hit. Of some 83,000 tested, about 20% had one in any assay. The source made the active and inactive calls. Rule for the calls: active = growth percent below 10; inactive = the rest.
observed_property: growth

A selection of reference data follows.
COc1cccc(/C=C/c2c(C(=O)O)cccc2[N+](=O)[O-])c1OC :: 99.7% (inactive)
Cc1cccc(NC(=O)c2sc3nc4c(cc3c2N)CCCC4)c1 :: 36% (inactive)
CC(Br)C(OC(=O)c1ccccc1Cl)c1cc2c(cc1Br)OCO2 (centres undefined) :: 84.6% (inactive)

I'm hoping you can list growth for every compound here, please.
1. COc1ccc(-c2cn[nH]c2-c2cc(OC)c3c(c2)OCO3)cc1
2. CC(Br)C(Br)c1cc2c(cc1Br)OCO2 (centres undefined)
3. O=[N+]([O-])c1ccc(S(=O)(=O)N2CCN(c3ccnc4cc(Cl)ccc34)CC2)c([N+](=O)[O-])c1
4. COc1ccc2c(c1)C(C)Cc1c(N(C)C)ncnc1N2C (centres undefined)
5. COc1cc2oc(-c3cccc(NC(=O)Nc4ccc5c(c4)OCO5)c3)cc(=O)c2c(OC)c1OC
6. COC1=CC(c2ccc[nH]2)=N/C1=C\c1[nH]c(C)c(CCCn2cc(CCCCCCCCC[C@@H]3Cc4cc(O)ccc4C4CC[C@]5(C)[C@@H](O)CC[C@H]5C43)nn2)c1C (some centres undefined)

["21.9% (inactive)", "109% (inactive)", "40.5% (inactive)", "21.4% (inactive)", "57.3% (inactive)", "44.8% (inactive)"]

====

Tested on: COLO 205 colon
Experiment: NCI-60 one-dose screen, 48 h (100 = growth as untreated, 0 = no growth, -100 = all killed)
Conditions: 10 µM unless noted
This is part of a sample that, as a whole, favours compounds with a hit. Of some 83,000 tested, about 20% had one in any assay.
observed_property: growth (%)
One number for each entry, in %.

Known results for molecules:
Cc1ccc(Nc2ncnc3c2sc2ncccc23)cc1 :: 107
COc1ccc(-n2c(C)cc(-c3ccccc3)c2C)cc1 :: 39.4
N#CC1=C(N)n2nc(-c3ccncc3)nc2NC1c1cccc2ccccc12 (stereo not given) :: 106
Cc1ccc(OCCn2c(C)nn(-c3ccc(Cl)cc3)c2=O)cc1 :: 115

For each listed entry, give its growth.
1. Cc1ccc(Oc2nc3ccccc3cc2-c2nnc(Cn3c(COc4ccccc4)nc4ccccc43)o2)cc1
2. COc1cc(OC)c(C(=O)/C=C/c2ccc(C(F)(F)F)cc2)c(OC)c1
3. O=C(c1ccncc1)N1N=C(c2ccc(Cl)cc2)CC1c1c[nH]c2ccccc12 (stereo not given)
4. Clc1nc(Cl)c2ncn(C/C=C/Cn3cnc4c(Cl)nc(Cl)nc43)c2n1
5. COc1cccc(NC(=O)c2sc3nc4c(cc3c2N)CCCC4)c1

1: 84.6; 2: 86.9; 3: 97.9; 4: 63.3; 5: 49.2

Entry CCN1C(=O)/C(=c2\sc3n(c2=O)C2C(NN=3)N(CC)C(=S)N2CC)c2ccccc21 (stereo not given) has what growth?
103

====

Tested on: MCF7 breast
Assay: NCI-60 one-dose screen, 48 h
Details: 10 µM unless noted
This is part of a sample that, as a whole, favours compounds with a hit. Of some 83,000 tested, about 20% had one in any assay. The source made the active and inactive calls. How the source made its calls: active means growth percent below 10; inactive means the rest.
Return exactly one item of class 1 for active, class 0 for inactive

Consider the following illustrative entries.
COc1ccc(/C(=N/O)c2cc(OC)c(OC)c(OC)c2)c(OC)c1N :: class 0
Nc1c(C(=O)Nc2ccccc2)sc2nc3c(cc12)CN(Cc1ccccc1)CC3 :: class 0
NC(N)=NC(N)=Nc1ccccc1-c1ccccc1 :: class 0
CCOC(=O)CC/C(C)=N\Nc1ccc([N+](=O)[O-])cc1 :: class 0

How did this test come out for CNC(C)=O ?
class 0

What is the recorded call for this compound in the test? COc1ccc(-n2c(C)cc(-c3ccccc3)c2C)cc1
class 0

Recorded test call requested for CC[C@H](C)[C@H]1NC(=O)[C@@H](N[C@](C)(O)[C@@H](N)CC(C)C)[C@@H](C)OC(=O)[C@H](Cc2ccc(OC)cc2)N(C)C(=O)[C@@H]2CCCN2C(=O)[C@H](CC(C)C)NC(=O)[C@@H](C)C(=O)[C@H](C(C)C)OC(=O)C[C@@H]1O
class 1

Per the records of this test, what outcome belongs to O=C1N=C(c2c(-c3[nH]c(=O)c4ccc(Br)cc4c3O)c(O)c3ccccc3c2O)C(=O)c2cc(Br)ccc21 ?
class 1

What call does the record list for O=S(=O)(NCCNc1nccc(-c2c(-c3ccccc3)nc3sccn23)n1)c1ccc(O)cc1 ?
class 0

Which outcome was assigned to Cc1cc2c(c(=O)o1)C(c1ccc(OC(=O)N3CCOCC3)cc1)C(C#N)=C(N)O2 (stereo not drawn) in this test?
class 0

How did this test come out for C=CCOc1ccc(/C(O)=C2\C(=O)C(=O)N(c3nccs3)C2c2ccccc2F)cc1 (stereo not drawn) ?
class 0
